- target entity: T1, bait vector (empty pBI-880, GAL4 (1-147) alone) (UniProt P04386 1-147)
- T1 construct: range 1-147; Negative control: bait vector without insert; also called empty bait
- T1 sequence (P04386 1-147 limits assumed): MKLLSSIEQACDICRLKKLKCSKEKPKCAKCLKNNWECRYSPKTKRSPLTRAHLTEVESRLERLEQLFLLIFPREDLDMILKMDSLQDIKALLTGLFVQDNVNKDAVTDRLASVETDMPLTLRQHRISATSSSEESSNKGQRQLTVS
- measurement description: yeast two-hybrid, K-box prey with empty bait
measurement kind: binding result

SEP3K (K-box region of SEP3 in prey vector pBI771) (other, also called SEP3 K-box; K-box prey construct; not shown: fusion partner encoded by prey vector pBI771) SQQEYLKLKERYDALQRTQRNLLGEDLGPLSTKELESLERQLDSSLKQIRALRTQFMLDQLNDLQSK | no binding
AGL24K (K-box region of AGL24 in prey vector pBI771) (other, not shown: small tags and cut ends, also called AGL24 K-box; K-box prey construct) MLENCNLSRLSKEVEDKTKQLRKLRGEDLDGLNLEELQRLEKLLESGLSRVSEKKGECVMSQIFSLE | no binding
SVPK (K-box region of SVP in prey vector pBI771) (other, not shown: small tags and cut ends, also called SVP K-box; K-box prey construct) MSDHARMSKEIADKSHRLRQMRGEELQGLDIEELQQLEKALETGLTRVIETKSDKIMSEISELQKKG | no binding
SOC1K (K-box region of SOC1 in prey vector pBI771) (other, not shown: small tags and cut ends, also called SOC1 K-box; K-box prey construct) MKYEAANMMKKIEQLEASKRKLLGEGIGTCSIEELQQIEQQLEKSVKCIRARKTQVFKEQIEQLKQKE | no binding
